Test system: Bacillus subtilis
Assay: Antimicrobial activity against Bacillus subtilis by CLSI method
Assay type: functional
Conditions: Bacillus subtilis
Result type: MIC50

>>> df
                                   compound  result_type        result
0  CC(=O)OCC1=C(C(=O)[O-])N2C(=O)[C@@H](NC(=O)CCCCCCCC3C(=O)N(c4ccccc4)C3c3ccccc3)[C@H]2SC1.[Na+] (mixture of isomers)        MIC50  < 0.25 µg/mL
1  COc1ccc(N2C(=O)C(CCCCCC(=O)N[C@@H]3C(=O)N4C(C(=O)[O-])=C(COC(C)=O)CS[C@H]34)C2c2ccccc2)cc1.[Na+] (mixture of isomers)        MIC50  < 0.12 µg/mL
2  COc1ccc(N2C(=O)C(CC(=O)N[C@@H]3C(=O)N4C(C(=O)[O-])=C(COC(C)=O)CS[C@H]34)C2c2ccccc2)cc1.[Na+] (mixture of isomers)        MIC50  < 0.25 µg/mL
3  CC(=O)OCC1=C(C(=O)[O-])N2C(=O)[C@@H](NC(=O)CC3C(=O)N(c4ccc(C)c(C)c4)C3c3ccccc3)[C@H]2SC1.[Na+] (mixture of isomers)        MIC50  < 0.25 µg/mL
4  CC(=O)OCC1=C(C(=O)[O-])N2C(=O)[C@@H](NC(=O)CCC3C(=O)N(c4ccc(C)c(C)c4)C3c3ccccc3)[C@H]2SC1.[Na+] (mixture of isomers)        MIC50     ≤ 1 µg/mL
5  COc1ccc(N2C(=O)C(CC(=O)N[C@@H]3C(=O)N4C(C(=O)[O-])=C(COC(C)=O)CS[C@H]34)C2c2ccc(Cl)cc2)cc1.[Na+] (mixture of isomers)        MIC50     < 4 µg/mL

* * *

Documented MIC across a set of molecules
Test system: Staphylococcus aureus
Experiment: Antimicrobial activity against Staphylococcus aureus by CLSI method
Type: functional
Conditions: Staphylococcus aureus; read-out: MIC100
Result type: MIC

>>> df
                                   molecule  result_type          result
0  COc1ccc(N2C(=O)C(CCCCCCCC(=O)N[C@@H]3C(=O)N4C(C(=O)[O-])=C(COC(C)=O)CS[C@H]34)C2c2ccccc2)cc1.[Na+] (mixture of isomers)          MIC    < 0.25 µg/mL
1  CC(=O)OCC1=C(C(=O)[O-])N2C(=O)[C@@H](NC(=O)CCCCCC3C(=O)N(c4ccccc4)C3c3ccccc3)[C@H]2SC1.[Na+] (mixture of isomers)          MIC  3.5 to 4 µg/mL
2  CC(=O)OCC1=C(C(=O)[O-])N2C(=O)[C@@H](NC(=O)CC3C(=O)N(c4ccc(C)c(C)c4)C3c3ccccc3)[C@H]2SC1.[Na+] (mixture of isomers)          MIC    4 to 8 µg/mL
3  CC(=O)OCC1=C(C(=O)[O-])N2C(=O)[C@@H](NC(=O)CCC3C(=O)N(c4ccc(C)c(C)c4)C3c3ccccc3)[C@H]2SC1.[Na+] (mixture of isomers)          MIC    4 to 6 µg/mL

Values from ChEMBL document CHEMBL4616606
